All values here come from ChEMBL document CHEMBL5625263.

# Experimental system: Protein kinase C alpha type (Homo sapiens)
# Method summary: Inhibition of PKC alpha (unknown origin) in presence of 1 mM ATP
pIC50: −log10 of the molar value.
// label = Condition met if pIC50 is not less than 6, otherwise Condition not met

Form field: pIC50 at least 6? Entry: CC1CCN(C)c2ccnc3cc(F)c(nc23)-n2c(=O)[nH]c3nccc(c32)O1 (centres undefined)
Condition met

Please answer likewise for CC1CCCOc2ccnc3[nH]c(=O)n(c23)-c2ccc3nccc1c3n2 (centres undefined)
Condition met

Thanks! And CC1CCCOc2cccc(n2)-n2c(=O)[nH]c3nccc(c32)O1 (centres undefined) ?
Condition not met

Also CC1CC(C)Oc2ccnc3[nH]c(=O)n(c23)-c2cccc(n2)O1 (centres undefined) , if possible.
Condition not met

Cool, now CC1CCCOc2ccnc3[nH]c(=O)n(c23)-c2cccc(n2)O1 (centres undefined)
Condition not met

* * *

# Method summary: Efflux ratio of apparent permeability across basolateral to apical side over apical to basolateral side in human Caco-2 cells
# Type: ADME, cell-based
Kindly supply the reported efflux ratio values for the records listed here.
Numbers only.

Worked examples follow.
Molecule | Recorded endpoint | Val
CC1CCCn2ccc(=O)c3ccc(nc32)-n2c(=O)[nH]c3nccc(c32)O1 (stereo not given) | efflux ratio | 23
CC1CCC(C)n2ccc(=O)c3cc(F)c(nc32)-n2c(=O)[nH]c3nccc(c32)O1 (stereo not given) | efflux ratio | 13
CC1CCC(C)Oc2ccnc3[nH]c(=O)n(c23)-c2nc(c(C(N)=O)cc2F)O1 (stereo not given) | efflux ratio | 7
CC1CCn2ccc(=O)c3cc(F)c(nc32)-n2c(=O)[nH]c3nccc(c32)O1 (stereo not given) | efflux ratio | 53
CC1CCC(C)n2ccc(=O)c3ccc(nc32)-n2c(=O)[nH]c3nccc(c32)O1 (stereo not given) | efflux ratio | 8

Quick request: efflux ratio for each listed item, please.
1. CC1CC(C)Oc2ccnc3[nH]c(=O)n(c23)-c2cccc(n2)O1 (stereo not given)
2. CC1CCN(C)c2c(F)cnc3cc(F)c(nc23)-n2c(=O)[nH]c3nccc(c32)O1 (stereo not given)
3. CC1CCCOc2nc(ccc2C(N)=O)-n2c(=O)[nH]c3nccc(c32)O1 (stereo not given)
4. CC1CCCOc2ccnc3[nH]c(=O)n(c23)-c2cccc(n2)O1 (stereo not given)
5. CC1CCOc2ccnc3ccc(nc23)-n2c(=O)[nH]c3nccc(c32)O1 (stereo not given)

1: 0.6; 2: 1; 3: 8; 4: 0.7; 5: 1

* * *

# Method summary: Selectivity ratio of inhibition of PI3K-C2beta (unknown origin) to inhibition of PKC theta (unknown origin) at 1 mM ATP concentration
Hi there, I'd appreciate the recorded Selectivity ratio for every entry that follows.

Observe how each entry below is paired with its result.
Molecule | Selectivity ratio
CC1CCN2c3nc(ccc3C(=O)NC2(C)C)-n2c(=O)[nH]c3nccc(c32)O1 (stereo not given) | 4640
CC1CC(C)Oc2ccnc3[nH]c(=O)n(c23)-c2cccc(n2)O1 (stereo not given) | > 370
CC1CCC(C)n2ccc(=O)c3ccc(nc32)-n2c(=O)[nH]c3nccc(c32)O1 (stereo not given) | 3050
CC1CCN(C)c2c(F)cnc3cc(F)c(nc23)-n2c(=O)[nH]c3nccc(c32)O1 (stereo not given) | 332

Proceeding to the next molecule to report its Selectivity ratio.
# lookup: Selectivity ratio of CC1CCCOc2nc(ccc2C(N)=O)-n2c(=O)[nH]c3nccc(c32)O1 (stereo not given)
133

* * *

# Method summary: Selectivity ratio of inhibition of MSK1 (unknown origin) to inhibition of PKC theta (unknown origin) at 1 mM ATP concentration
Consider the following molecules; for each one, report its Selectivity ratio.
Answers are plain numbers.

Take a look at these entries with their results.
Molecule | Selectivity ratio
CC1CC(C)Oc2ccnc3[nH]c(=O)n(c23)-c2cccc(n2)O1 (stereo not given) | 142
CC1CCN(C)c2c(F)cnc3cc(F)c(nc23)-n2c(=O)[nH]c3nccc(c32)O1 (stereo not given) | 576
CC1CCN2c3nc(ccc3C(=O)NC2(C)C)-n2c(=O)[nH]c3nccc(c32)O1 (stereo not given) | 5160
CC1CCCOc2nc(ccc2C(N)=O)-n2c(=O)[nH]c3nccc(c32)O1 (stereo not given) | 322

Turning now to a further molecule:
What Selectivity ratio value was documented for this molecule, CC1CCC(C)n2ccc(=O)c3ccc(nc32)-n2c(=O)[nH]c3nccc(c32)O1 (stereo not given) ?
945

* * *

# Method summary: Selectivity ratio of inhibition of PKACalpha (unknown origin) to inhibition of PKC theta (unknown origin) at 1 mM ATP concentration
Provide the recorded Selectivity ratio for the entries that follow.

Worked cases, answers included:
Compound | Recorded endpoint | Val
CC1CCC(C)n2ccc(=O)c3ccc(nc32)-n2c(=O)[nH]c3nccc(c32)O1 (stereo not given) | Selectivity ratio | > 6250
CC1CC(C)Oc2ccnc3[nH]c(=O)n(c23)-c2cccc(n2)O1 (stereo not given) | Selectivity ratio | > 370
CC1CCN2c3nc(ccc3C(=O)NC2(C)C)-n2c(=O)[nH]c3nccc(c32)O1 (stereo not given) | Selectivity ratio | 25000
CC1CCCOc2nc(ccc2C(N)=O)-n2c(=O)[nH]c3nccc(c32)O1 (stereo not given) | Selectivity ratio | 501

Please report the recorded Selectivity ratio for CC1CCN(C)c2c(F)cnc3cc(F)c(nc23)-n2c(=O)[nH]c3nccc(c32)O1 (stereo not given) .
754

* * *

# Experimental system: UniProt:Q04759
# Sequence (Q04759 whole entry): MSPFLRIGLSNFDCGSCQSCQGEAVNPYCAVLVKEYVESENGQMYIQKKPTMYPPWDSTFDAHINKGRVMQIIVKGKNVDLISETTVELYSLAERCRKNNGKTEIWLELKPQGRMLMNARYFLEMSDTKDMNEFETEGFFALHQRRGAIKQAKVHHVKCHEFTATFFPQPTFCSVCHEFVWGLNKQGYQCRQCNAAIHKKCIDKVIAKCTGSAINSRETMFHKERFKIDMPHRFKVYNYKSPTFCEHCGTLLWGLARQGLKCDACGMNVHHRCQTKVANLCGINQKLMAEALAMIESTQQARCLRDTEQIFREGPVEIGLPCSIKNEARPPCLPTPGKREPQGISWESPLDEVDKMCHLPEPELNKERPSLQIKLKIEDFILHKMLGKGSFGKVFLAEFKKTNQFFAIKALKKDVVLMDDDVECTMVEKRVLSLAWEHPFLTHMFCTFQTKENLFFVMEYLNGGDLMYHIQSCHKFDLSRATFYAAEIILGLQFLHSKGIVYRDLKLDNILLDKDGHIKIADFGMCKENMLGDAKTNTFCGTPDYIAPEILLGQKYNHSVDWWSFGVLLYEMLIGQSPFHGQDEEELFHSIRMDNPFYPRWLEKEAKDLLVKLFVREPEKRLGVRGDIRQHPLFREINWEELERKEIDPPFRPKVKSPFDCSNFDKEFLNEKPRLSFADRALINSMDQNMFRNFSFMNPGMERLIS
# Method summary: Inhibition of PKC theta (unknown origin) in presence of 1 mM ATP
Recorded endpoint: log10(IC50) (log10 of the value in nM)
Values are log10 of IC50 in nM.

Some compounds with recorded log10(IC50):
Compound | log10(IC50)
CC1CCN(C)c2ccnc3ccc(nc23)-n2c(=O)[nH]c3nccc(c32)O1 (stereo not given) | 0.00
CC1CCCn2ccc(=O)c3ccc(nc32)-n2c(=O)[nH]c3nccc(c32)O1 (stereo not given) | 1.18
CC1CCCOc2nc(ccc2C(N)=O)-n2c(=O)[nH]c3nccc(c32)O1 (stereo not given) | 1.08
CC1CCC(C)c2ccnc3ccc(nc23)-n2c(=O)[nH]c3nccc(c32)O1 (stereo not given) | 0.59
CC1CC(C)Oc2ccnc3[nH]c(=O)n(c23)-c2cccc(n2)O1 (stereo not given) | 1.43
CC1CCCOc2nc(c(-c3cnc[nH]3)cc2C(N)=O)-n2c(=O)[nH]c3nccc(c32)O1 (stereo not given) | 1.18
CC1CCCOc2ccnc3[nH]c(=O)n(c23)-c2nc(c(C(N)=O)cc2-c2ncc[nH]2)O1 (stereo not given) | 0.08
CC1CCCOc2ccnc3[nH]c(=O)n(c23)-c2cccc(n2)O1 (stereo not given) | 0.56

Please state, for each entry, its recorded log10(IC50).
1. CC1CCOc2ccnc3ccc(nc23)-n2c(=O)[nH]c3nccc(c32)O1 (stereo not given)
2. CC1CCC(C)n2ccc(=O)c3ccc(nc32)-n2c(=O)[nH]c3nccc(c32)O1 (stereo not given)

1. 1.73
2. 0.20

* * *

# Method summary: Oral bioavailability in rat
# Type: ADME, organism-based
# Study conditions: in vivo
Each entry gets no (0) if its bioavailability stays under 40%, and yes (1) if its bioavailability is 40% or above.

Examples from the recorded data:
Compound | Class name
CC1CC(C)Oc2ccnc3[nH]c(=O)n(c23)-c2cccc(n2)O1 (configuration not stated) | yes (1)
CC1CCCOc2nc(ccc2C(N)=O)-n2c(=O)[nH]c3nccc(c32)O1 (configuration not stated) | yes (1)
CC1CCN(C)c2c(F)cnc3cc(F)c(nc23)-n2c(=O)[nH]c3nccc(c32)O1 (configuration not stated) | yes (1)

hey, is bioavailability for this one >= 40%? CC1CCC(C)n2ccc(=O)c3ccc(nc32)-n2c(=O)[nH]c3nccc(c32)O1 (configuration not stated)
no (0)

And what about the compound CC1CCC(C)Oc2ccnc3[nH]c(=O)n(c23)-c2nc(c(C(N)=O)cc2F)O1 (configuration not stated) ?
yes (1)

Now consider CC1CCN2c3nc(ccc3C(=O)NC2(C)C)-n2c(=O)[nH]c3nccc(c32)O1 (configuration not stated) and answer again.
no (0)

* * *

# Method summary: Selectivity ratio of inhibition of PKCbeta1 (unknown origin) to inhibition of PKC theta (unknown origin) at 1 mM ATP concentration
The label depends only on Selectivity ratio: rule met if it is at least 300, rule not met if it is smaller.

Recorded results for 4 compounds are shown here.
Compound | Class name
CC1CCN(C)c2c(F)cnc3cc(F)c(nc23)-n2c(=O)[nH]c3nccc(c32)O1 (stereo not given) | rule met
CC1CCC(C)n2ccc(=O)c3ccc(nc32)-n2c(=O)[nH]c3nccc(c32)O1 (stereo not given) | rule not met
CC1CCCOc2nc(ccc2C(N)=O)-n2c(=O)[nH]c3nccc(c32)O1 (stereo not given) | rule not met
CC1CCN2c3nc(ccc3C(=O)NC2(C)C)-n2c(=O)[nH]c3nccc(c32)O1 (stereo not given) | rule met

Turning now to a further compound:
For this compound, is measured Selectivity ratio 300 or higher? CC1CC(C)Oc2ccnc3[nH]c(=O)n(c23)-c2cccc(n2)O1 (stereo not given)
rule not met
